Hello, the source for this data is the supplement of paper PMC7877785, in case you need it.

- testDetails: self-splicing fitness, log relative to wild type (ln ratio); higher = more splicing; Tetrahymena group I intron in knt gene, E. coli kanamycin selection, DiMSum; sequences stand for … in CUCUCU…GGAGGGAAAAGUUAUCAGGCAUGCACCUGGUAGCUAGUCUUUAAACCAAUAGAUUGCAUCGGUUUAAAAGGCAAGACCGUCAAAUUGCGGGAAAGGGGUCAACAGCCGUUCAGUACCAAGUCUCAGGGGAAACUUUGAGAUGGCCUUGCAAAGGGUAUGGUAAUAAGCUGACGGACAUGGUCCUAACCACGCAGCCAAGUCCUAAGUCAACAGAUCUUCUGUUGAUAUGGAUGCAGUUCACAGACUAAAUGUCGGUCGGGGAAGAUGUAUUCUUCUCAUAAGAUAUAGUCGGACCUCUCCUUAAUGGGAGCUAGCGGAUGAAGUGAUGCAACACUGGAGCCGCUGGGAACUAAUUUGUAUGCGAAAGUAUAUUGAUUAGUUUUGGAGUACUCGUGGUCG;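 further: selection with 25 µg/mL kanamycin versus none on LB agar overnight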
- cond: 30 °C

>  <recordSequence>
CGCGAGCAAUAUUACGCAGA

>  <self-splicing fitness (ln)>
-1.75

$$$$
>  <recordSequence>
GAUCAGCAAUAUUACGCACA

>  <self-splicing fitness (ln)>
-0.0131

$$$$
>  <recordSequence>
GGUGAGCAAUAUUACGGAUA

>  <self-splicing fitness (ln)>
-2.24

$$$$
>  <recordSequence>
CAAGAGCAAUAUUACGGCAG

>  <self-splicing fitness (ln)>
-1.54

$$$$
>  <recordSequence>
UCCGAGCAAUAUUACGGCAU

>  <self-splicing fitness (ln)>
-2.13

$$$$
>  <recordSequence>
AAGCAGCAAUAUUACGUAUC

>  <self-splicing fitness (ln)>
-3.07

$$$$
>  <recordSequence>
GCUUAGCAAUAUUACGCGGA

>  <self-splicing fitness (ln)>
-1.32

$$$$
>  <recordSequence>
AUUUAGCAAUAUUACGAAAU

>  <self-splicing fitness (ln)>
-2

$$$$
>  <recordSequence>
CAUUAGCAAUAUUACGUCAU

>  <self-splicing fitness (ln)>
-4.39

$$$$
>  <recordSequence>
CUGUAGCAAUAUUACGGCGU

>  <self-splicing fitness (ln)>
-3.75

$$$$
>  <recordSequence>
CCUGAGCAAUAUUACGGCUG

>  <self-splicing fitness (ln)>
-4.49

$$$$
>  <recordSequence>
UUAUAGCAAUAUUACGGCGC

>  <self-splicing fitness (ln)>
-0.766

$$$$
>  <recordSequence>
GUUUAGCAAUAUUACGGAUG

>  <self-splicing fitness (ln)>
-3.5

$$$$
>  <recordSequence>
ACCGAGCAAUAUUACGCAAC

>  <self-splicing fitness (ln)>
-2.01

$$$$
>  <recordSequence>
AUGUAGCAAUAUUACGUUUA

>  <self-splicing fitness (ln)>
-2.38

$$$$
>  <recordSequence>
GCUUAGCAAUAUUACGAUAU

>  <self-splicing fitness (ln)>
-1.67

$$$$
>  <recordSequence>
UCGCAGCAAUAUUACGUGCC

>  <self-splicing fitness (ln)>
-2.66

$$$$
>  <recordSequence>
CGGAAGCAAUAUUACGACUG

>  <self-splicing fitness (ln)>
-2.02

$$$$
>  <recordSequence>
GGCGAGCAAUAUUACGACCA

>  <self-splicing fitness (ln)>
-2.38

$$$$
>  <recordSequence>
UAUAAGCAAUAUUACGCUAC

>  <self-splicing fitness (ln)>
-3.61

$$$$
>  <recordSequence>
CAGAAGCAAUAUUACGGGUC

>  <self-splicing fitness (ln)>
-3.4

$$$$
>  <recordSequence>
GGAAAGCAAUAUUACGUUGA

>  <self-splicing fitness (ln)>
-2.31

$$$$
>  <recordSequence>
GCGCAGCAAUAUUACGGCAC

>  <self-splicing fitness (ln)>
-0.436

$$$$
>  <recordSequence>
GGAUAGCAAUAUUACGUUCU

>  <self-splicing fitness (ln)>
-1.88

$$$$
>  <recordSequence>
AUAGAGCAAUAUUACGUCUU

>  <self-splicing fitness (ln)>
0.446

$$$$
>  <recordSequence>
CGAUAGCAAUAUUACGGGCC

>  <self-splicing fitness (ln)>
-1.62

$$$$
>  <recordSequence>
GCCCAGCAAUAUUACGCGGC

>  <self-splicing fitness (ln)>
-4.94

$$$$
>  <recordSequence>
UACUAGCAAUAUUACGAUUA

>  <self-splicing fitness (ln)>
-0.867

$$$$
>  <recordSequence>
GGUUAGCAAUAUUACGUAAU

>  <self-splicing fitness (ln)>
-2.05

$$$$
>  <recordSequence>
GACAAGCAAUAUUACGUAAG

>  <self-splicing fitness (ln)>
-2.11

$$$$
>  <recordSequence>
GCCCAGCAAUAUUACGGUAA

>  <self-splicing fitness (ln)>
-0.279

$$$$
>  <recordSequence>
AAUUAGCAAUAUUACGGCUU

>  <self-splicing fitness (ln)>
-0.0634

$$$$
>  <recordSequence>
CCACAGCAAUAUUACGACCU

>  <self-splicing fitness (ln)>
-3.94

$$$$
>  <recordSequence>
CGUGAGCAAUAUUACGGAAA

>  <self-splicing fitness (ln)>
-2.27

$$$$

###

- testDetails: self-splicing fitness, log relative to wild type (ln ratio); higher = more splicing; Tetrahymena group I intron in knt gene, E. coli kanamycin selection, DiMSum; sequences stand for … in CUCUCU…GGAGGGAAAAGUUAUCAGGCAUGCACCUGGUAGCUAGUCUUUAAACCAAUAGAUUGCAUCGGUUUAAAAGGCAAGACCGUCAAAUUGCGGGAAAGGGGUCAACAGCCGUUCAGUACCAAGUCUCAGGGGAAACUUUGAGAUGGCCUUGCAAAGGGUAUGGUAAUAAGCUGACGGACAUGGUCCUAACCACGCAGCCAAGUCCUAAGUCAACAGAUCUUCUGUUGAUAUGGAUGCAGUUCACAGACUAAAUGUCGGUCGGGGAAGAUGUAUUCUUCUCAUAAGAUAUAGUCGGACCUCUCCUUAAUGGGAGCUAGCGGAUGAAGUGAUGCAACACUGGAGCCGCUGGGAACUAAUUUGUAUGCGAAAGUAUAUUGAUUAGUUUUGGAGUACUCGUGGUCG
- cond: 37 °C
resultType: self-splicing fitness (ln)

>  <recordSequence>
GUGCAGCAAUAUUACGCCAC

>  <reportedMeasurement>
-1.95

$$$$
>  <recordSequence>
AUACAGCAAUAUUACGCAAG

>  <reportedMeasurement>
-1.49

$$$$
>  <recordSequence>
UAUUAGCAAUAUUACGUCUC

>  <reportedMeasurement>
-1.5

$$$$
>  <recordSequence>
CGCAAGCAAUAUUACGCAAG

>  <reportedMeasurement>
-2.2

$$$$
>  <recordSequence>
CGUAAGCAAUAUUACGACGC

>  <reportedMeasurement>
-2.02

$$$$
>  <recordSequence>
GCGCAGCAAUAUUACGGCAC

>  <reportedMeasurement>
-0.634

$$$$
>  <recordSequence>
CUUAAGCAAUAUUACGACAA

>  <reportedMeasurement>
-2.98

$$$$
>  <recordSequence>
AUCUAGCAAUAUUACGGCGU

>  <reportedMeasurement>
0.429

$$$$
>  <recordSequence>
CACCAGCAAUAUUACGGUUA

>  <reportedMeasurement>
-0.0422

$$$$
>  <recordSequence>
AGAAAGCAAUAUUACGCCGG

>  <reportedMeasurement>
-1.62

$$$$
>  <recordSequence>
AUACAGCAAUAUUACGCCAU

>  <reportedMeasurement>
-0.757

$$$$
>  <recordSequence>
AUCGAGCAAUAUUACGAGGA

>  <reportedMeasurement>
-2.07

$$$$
>  <recordSequence>
CCUCAGCAAUAUUACGAAUU

>  <reportedMeasurement>
-2.13

$$$$
>  <recordSequence>
ACCUAGCAAUAUUACGGCCC

>  <reportedMeasurement>
-0.39

$$$$
>  <recordSequence>
UACAAGCAAUAUUACGUCCC

>  <reportedMeasurement>
-1.58

$$$$
>  <recordSequence>
CCACAGCAAUAUUACGAACC

>  <reportedMeasurement>
-2.46

$$$$

###

- testDetails: self-splicing fitness, log relative to wild type (ln ratio); higher = more splicing; Tetrahymena group I intron in knt gene, E. coli kanamycin selection, DiMSum; sequences stand for … in CUCUCU…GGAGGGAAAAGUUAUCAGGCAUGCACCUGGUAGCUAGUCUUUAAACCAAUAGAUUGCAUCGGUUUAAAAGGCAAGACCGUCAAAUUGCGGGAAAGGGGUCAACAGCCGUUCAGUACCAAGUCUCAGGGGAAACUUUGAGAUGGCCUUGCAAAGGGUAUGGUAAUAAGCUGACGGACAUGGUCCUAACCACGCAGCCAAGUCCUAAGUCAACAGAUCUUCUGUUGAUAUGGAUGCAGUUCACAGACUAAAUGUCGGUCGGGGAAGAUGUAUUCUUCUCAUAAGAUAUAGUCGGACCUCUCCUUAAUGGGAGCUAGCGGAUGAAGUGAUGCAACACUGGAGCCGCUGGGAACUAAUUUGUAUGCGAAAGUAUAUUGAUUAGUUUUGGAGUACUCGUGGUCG
- cond: 30 °C

>  <recordSequence>
CGCCAGCAAUAUUACGCUCG

>  <self-splicing fitness (ln)>
-2.21

$$$$
>  <recordSequence>
UGUCAGCAAUAUUACGUACG

>  <self-splicing fitness (ln)>
-0.208

$$$$
>  <recordSequence>
CAUGAGCAAUAUUACGAUAU

>  <self-splicing fitness (ln)>
-3.32

$$$$
>  <recordSequence>
AUGAAGCAAUAUUACGCAAC

>  <self-splicing fitness (ln)>
-1.28

$$$$
>  <recordSequence>
UUUUAGCAAUAUUACGCAUC

>  <self-splicing fitness (ln)>
-3.19

$$$$
>  <recordSequence>
UUGAAGCAAUAUUACGGCAG

>  <self-splicing fitness (ln)>
0.393

$$$$
>  <recordSequence>
GCACAGCAAUAUUACGUCGG

>  <self-splicing fitness (ln)>
-1.72

$$$$
>  <recordSequence>
UGUGAGCAAUAUUACGCGCU

>  <self-splicing fitness (ln)>
-2.53

$$$$
>  <recordSequence>
GAACAGCAAUAUUACGGGAA

>  <self-splicing fitness (ln)>
-2.38

$$$$
>  <recordSequence>
GCUAAGCAAUAUUACGAAGA

>  <self-splicing fitness (ln)>
-0.925

$$$$
>  <recordSequence>
UAACAGCAAUAUUACGUUUC

>  <self-splicing fitness (ln)>
-4.16

$$$$
>  <recordSequence>
ACAGAGCAAUAUUACGUUAG

>  <self-splicing fitness (ln)>
-3.09

$$$$
>  <recordSequence>
AUGAAGCAAUAUUACGAUCC

>  <self-splicing fitness (ln)>
-0.571

$$$$
>  <recordSequence>
ACUCAGCAAUAUUACGGUAU

>  <self-splicing fitness (ln)>
-1.67

$$$$
>  <recordSequence>
CUUUAGCAAUAUUACGUCUC

>  <self-splicing fitness (ln)>
-2.64

$$$$
>  <recordSequence>
UGGAAGCAAUAUUACGCCCC

>  <self-splicing fitness (ln)>
-1.69

$$$$
